target: UniProtKB Q8IU85; assay: radiometric filter-binding kinase assay, Kinase HotSpot; settings: compound 0.5 µM; ATP 10 µM
Sequence (Q8IU85 whole entry, looked up): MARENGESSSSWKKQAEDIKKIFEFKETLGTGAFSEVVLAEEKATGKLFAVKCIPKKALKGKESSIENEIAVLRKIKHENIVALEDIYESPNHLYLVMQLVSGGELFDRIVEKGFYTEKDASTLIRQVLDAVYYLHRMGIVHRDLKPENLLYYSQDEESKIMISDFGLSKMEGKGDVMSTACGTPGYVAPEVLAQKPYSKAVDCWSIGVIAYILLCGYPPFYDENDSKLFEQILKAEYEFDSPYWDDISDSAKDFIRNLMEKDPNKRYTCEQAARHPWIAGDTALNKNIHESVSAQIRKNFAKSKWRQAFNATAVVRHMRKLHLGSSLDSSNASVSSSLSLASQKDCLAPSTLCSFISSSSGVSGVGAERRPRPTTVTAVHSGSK
Decision: residual activity >= 90% yields TRUE, all other cases yield FALSE.

In: I'd appreciate it if you could say whether `CNC(=O)c1cc(Oc2ccc(NC(=O)Nc3ccc(Cl)c(C(F)(F)F)c3)cc2)ccn1` has residual activity at least equal to 90%.
Out: TRUE

In: I'd appreciate it if you could say whether `N#C/C(=C(/N)Sc1ccc(N)cc1)c1ccccc1C(F)(F)F` has residual activity at least equal to 90%.
Out: TRUE

In: I'd appreciate it if you could say whether `CC(=O)c1ccc(N2CCOCC2)cc1O` has residual activity at least equal to 90%.
Out: TRUE

In: I'd appreciate it if you could say whether `Cc1ccc(NC2=CC(=O)c3sc(C)nc3C2=O)cc1` has residual activity at least equal to 90%.
Out: TRUE

In: I'd appreciate it if you could say whether `Nc1ncnc2c1c(-c1ccc(Oc3ccccc3)cc1)cn2C1CCCC1` has residual activity at least equal to 90%.
Out: FALSE

In: I'd appreciate it if you could say whether `O=C1NC(=O)/C(=C/c2ccc3c(c2)OC(F)(F)O3)S1` has residual activity at least equal to 90%.
Out: FALSE

In: I'd appreciate it if you could say whether `Nc1cccc(-c2cc3c(Oc4cccc(O)c4)ncnc3[nH]2)c1` has residual activity at least equal to 90%.
Out: TRUE

In: I'd appreciate it if you could say whether CO[C@H]1CC2CC[C@@H](C)[C@@](O)(O2)C(=O)C(=O)N2CCCC[C@H]2C(=O)OC([C@H](C)C[C@@H]2CC[C@@H](O)[C@H](OC)C2)CC(=O)[C@H](C)/C=C(\C)[C@@H](O)[C@@H](OC)C(=O)[C@H](C)C[C@H](C)/C=C/C=C/C=C/1C (stereo not given in full) has residual activity at least equal to 90%.
Out: TRUE

In: I'd appreciate it if you could say whether `N#CC(C#N)=C(N)/C(C#N)=C/c1ccc(O)cc1` has residual activity at least equal to 90%.
Out: TRUE

In: I'd appreciate it if you could say whether `CC[n+]1c(/C=C/N(C)c2ccccc2)n(-c2ccccc2)c2ccc(-c3nc4ccccc4s3)cc21` has residual activity at least equal to 90%.
Out: TRUE

In: I'd appreciate it if you could say whether `Nc1ncnc2[nH]nc(Nc3ccc(F)cc3)c12` has residual activity at least equal to 90%.
Out: TRUE

----------
biological target: PAK1 (human); assay: radiometric filter-binding kinase assay, Kinase HotSpot; details: compound 0.5 µM; ATP 10 µM
MEASURE_NAME: residual activity (%)
Numbers only here, please. The scale is %.

In: Record lookup: for PAK1 (human), what residual activity belongs to `O=C1NC(=O)/C(=C/c2ccc3c(c2)OC(F)(F)O3)S1` ?
Out: 93.3

In: Record lookup: for PAK1 (human), what residual activity belongs to `Cc1ccc(S(=O)(=O)/C=C/C#N)cc1` ?
Out: 89.5

In: Record lookup: for PAK1 (human), what residual activity belongs to `Oc1cccc(-c2nc(N3CCOCC3)c3oc4ncccc4c3n2)c1` ?
Out: 97.6

In: Record lookup: for PAK1 (human), what residual activity belongs to `c1ccc(-c2n[nH]c3c2oc2ccccc23)cc1` ?
Out: 94.9

----------
Task for the reader: assign each of the following molecules its reported residual activity.
target: FRK (human) (UniProt P42685); assay: radiometric filter-binding kinase assay, Kinase HotSpot; conditions: compound 0.5 µM; ATP 10 µM
Sequence (P42685 whole entry, looked up): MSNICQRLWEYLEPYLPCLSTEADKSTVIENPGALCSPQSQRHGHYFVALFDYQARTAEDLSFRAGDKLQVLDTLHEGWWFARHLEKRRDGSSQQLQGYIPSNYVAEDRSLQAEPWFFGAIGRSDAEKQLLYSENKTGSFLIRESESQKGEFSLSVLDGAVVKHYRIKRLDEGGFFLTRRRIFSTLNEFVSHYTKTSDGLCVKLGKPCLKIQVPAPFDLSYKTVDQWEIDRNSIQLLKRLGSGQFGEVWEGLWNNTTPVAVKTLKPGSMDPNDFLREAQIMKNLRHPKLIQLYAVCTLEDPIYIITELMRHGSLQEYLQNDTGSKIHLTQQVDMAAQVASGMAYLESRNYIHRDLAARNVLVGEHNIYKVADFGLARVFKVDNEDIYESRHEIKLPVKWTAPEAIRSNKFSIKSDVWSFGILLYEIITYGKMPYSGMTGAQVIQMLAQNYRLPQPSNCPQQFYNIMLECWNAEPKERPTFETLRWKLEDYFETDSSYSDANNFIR
Numbers only here, please. The scale is %.

In: Entry under review: `CNc1cc2c(Nc3cccc(Br)c3)ncnc2cn1` . Reported residual activity?
Out: 91.2

In: Entry under review: `Nc1ncnc2[nH]nc(Nc3ccc(F)cc3)c12` . Reported residual activity?
Out: 90

In: Entry under review: `c1ccc(-c2n[nH]c3c2oc2ccccc23)cc1` . Reported residual activity?
Out: 89.9

In: Entry under review: `COc1cc2ncnc(Nc3cccc(Cl)c3)c2cc1OC` . Reported residual activity?
Out: 81.1

In: Entry under review: `Cc1ccc(Nc2nccc(N(C)c3ccc4c(C)n(C)nc4c3)n2)cc1S(N)(=O)=O` . Reported residual activity?
Out: 58.1

In: Entry under review: `N#CC(C#N)=C(N)/C(C#N)=C/c1ccc(O)cc1` . Reported residual activity?
Out: 99

In: Entry under review: `Cc1ccc(NC2=CC(=O)c3sc(C)nc3C2=O)cc1` . Reported residual activity?
Out: 87.9

In: Entry under review: `CCC(=O)Nc1ccc2ncnc(Nc3cccc(Br)c3)c2c1` . Reported residual activity?
Out: 66.8

In: Entry under review: `O=S(=O)(c1cccc2cnccc12)N1CCCNCC1` . Reported residual activity?
Out: 78.1

In: Entry under review: `CC(=O)c1ccc(N2CCOCC2)cc1O` . Reported residual activity?
Out: 91.6

In: Entry under review: `COc1ccc2c(c[n+](C)c3c4cc5c(cc4ccc23)OCO5)c1OC` . Reported residual activity?
Out: 89.3

----------
target: UniProt:Q06418; assay: radiometric filter-binding kinase assay, Kinase HotSpot; settings: compound 0.5 µM; ATP 10 µM
Sequence (Q06418 whole entry, looked up): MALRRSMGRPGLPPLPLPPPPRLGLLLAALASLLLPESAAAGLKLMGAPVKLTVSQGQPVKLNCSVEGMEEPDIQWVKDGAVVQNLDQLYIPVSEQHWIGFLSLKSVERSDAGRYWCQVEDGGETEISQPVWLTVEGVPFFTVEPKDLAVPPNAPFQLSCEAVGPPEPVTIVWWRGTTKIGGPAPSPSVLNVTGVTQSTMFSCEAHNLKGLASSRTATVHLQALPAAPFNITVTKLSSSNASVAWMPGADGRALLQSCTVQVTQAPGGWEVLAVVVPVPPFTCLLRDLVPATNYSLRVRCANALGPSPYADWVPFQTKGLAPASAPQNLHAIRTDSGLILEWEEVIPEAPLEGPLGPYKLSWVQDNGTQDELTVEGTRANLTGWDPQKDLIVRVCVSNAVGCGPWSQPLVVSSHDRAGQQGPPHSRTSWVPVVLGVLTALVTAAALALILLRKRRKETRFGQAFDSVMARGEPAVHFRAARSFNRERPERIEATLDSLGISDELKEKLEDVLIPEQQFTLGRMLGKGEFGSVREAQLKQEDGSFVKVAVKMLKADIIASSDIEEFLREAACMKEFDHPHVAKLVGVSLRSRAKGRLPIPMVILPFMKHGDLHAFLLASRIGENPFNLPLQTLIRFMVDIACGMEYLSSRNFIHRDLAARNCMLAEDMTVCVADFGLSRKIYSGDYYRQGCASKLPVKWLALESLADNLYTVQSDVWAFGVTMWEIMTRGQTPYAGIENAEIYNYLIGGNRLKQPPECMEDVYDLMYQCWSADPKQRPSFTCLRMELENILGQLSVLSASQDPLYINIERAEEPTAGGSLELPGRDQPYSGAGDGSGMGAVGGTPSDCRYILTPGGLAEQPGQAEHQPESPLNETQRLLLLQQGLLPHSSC
MEASURE_NAME: residual activity (%)
Numbers only here, please. The scale is %.

In: Record lookup: for UniProt:Q06418, what residual activity belongs to `Nc1ncnc2c1c(-c1ccc(Oc3ccccc3)cc1)cn2C1CCCC1` ?
Out: 102

In: Record lookup: for UniProt:Q06418, what residual activity belongs to `Cc1[nH]c(/C=C2\C(=O)Nc3ccc(S(=O)(=O)N(C)c4cccc(Cl)c4)cc32)c(C)c1C(=O)N1CCN(C)CC1` ?
Out: 34.7

In: Record lookup: for UniProt:Q06418, what residual activity belongs to `CC(=O)c1ccc(N2CCOCC2)cc1O` ?
Out: 89.1

In: Record lookup: for UniProt:Q06418, what residual activity belongs to `CC(C)N(CCC(=O)c1ccc2ccccc2c1)Cc1ccccc1` ?
Out: 98.9

In: Record lookup: for UniProt:Q06418, what residual activity belongs to `CCN(CC)CCNC(=O)c1c(C)[nH]c(/C=C2\C(=O)Nc3ccc(Cl)cc32)c1C` ?
Out: 23.2

----------
target: HIPK4 (human); test: radiometric filter-binding kinase assay, Kinase HotSpot; conditions: compound 0.5 µM; ATP 10 µM
Task for the reader: assign each of the following molecules its reported residual activity.
State the value with its unit after it.

In: Entry under review: `CC#CC(=O)Nc1cc2c(Nc3ccc(F)c(Cl)c3)ncnc2cn1` . Reported residual activity?
Out: 99.7%

In: Entry under review: `CCN(CC)CCNC(=O)c1c(C)[nH]c(/C=C2\C(=O)Nc3ccc(F)cc32)c1C` . Reported residual activity?
Out: 74.7%

In: Entry under review: `O=C(Nc1cccc(Nc2nccc(Nc3cccc(C(F)(F)F)c3)n2)c1)C1CC1` . Reported residual activity?
Out: 111%

In: Entry under review: `COc1ccc(COc2ccc(Cc3cnc(N)nc3N)cc2OC)cc1` . Reported residual activity?
Out: 97.7%

In: Entry under review: `CC(C)N(CCC(=O)c1ccc2ccccc2c1)Cc1ccccc1` . Reported residual activity?
Out: 107%

In: Entry under review: `O=C1NC(=O)c2c1c1c3ccccc3n3c1c1c2c2ccccc2n1C1CCC3O1` . Reported residual activity?
Out: 29.1%

----------
target: EPHB4 (human) (UniProt P54760); test: radiometric filter-binding kinase assay, Kinase HotSpot; settings: compound 0.5 µM; ATP 10 µM
Sequence (P54760 whole entry, looked up): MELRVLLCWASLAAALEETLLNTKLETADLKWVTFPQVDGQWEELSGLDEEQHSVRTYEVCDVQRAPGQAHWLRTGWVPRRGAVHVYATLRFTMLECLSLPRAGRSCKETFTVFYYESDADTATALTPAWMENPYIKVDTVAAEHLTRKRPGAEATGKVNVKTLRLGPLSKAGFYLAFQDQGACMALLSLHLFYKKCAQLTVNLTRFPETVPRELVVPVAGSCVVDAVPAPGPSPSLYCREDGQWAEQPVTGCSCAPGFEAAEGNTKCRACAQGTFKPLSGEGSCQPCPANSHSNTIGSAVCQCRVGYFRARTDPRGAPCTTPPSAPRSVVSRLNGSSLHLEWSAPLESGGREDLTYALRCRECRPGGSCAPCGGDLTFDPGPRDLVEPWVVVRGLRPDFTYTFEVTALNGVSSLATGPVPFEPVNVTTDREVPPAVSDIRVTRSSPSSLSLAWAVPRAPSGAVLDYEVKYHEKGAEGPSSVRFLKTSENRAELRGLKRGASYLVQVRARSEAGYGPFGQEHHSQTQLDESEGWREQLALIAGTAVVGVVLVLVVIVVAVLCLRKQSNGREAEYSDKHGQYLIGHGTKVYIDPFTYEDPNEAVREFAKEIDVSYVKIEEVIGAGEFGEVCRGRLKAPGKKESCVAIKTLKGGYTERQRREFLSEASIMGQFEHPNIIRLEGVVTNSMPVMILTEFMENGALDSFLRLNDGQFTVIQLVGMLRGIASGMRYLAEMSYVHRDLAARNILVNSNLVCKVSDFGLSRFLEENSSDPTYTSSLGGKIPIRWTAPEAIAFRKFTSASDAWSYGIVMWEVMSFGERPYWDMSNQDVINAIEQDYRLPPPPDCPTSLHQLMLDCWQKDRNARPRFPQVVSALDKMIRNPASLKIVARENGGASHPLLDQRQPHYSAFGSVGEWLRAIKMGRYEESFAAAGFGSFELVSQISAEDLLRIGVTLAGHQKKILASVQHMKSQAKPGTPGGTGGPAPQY
MEASURE_NAME: residual activity
State the value with its unit after it.

In: Record lookup: for EPHB4 (human) (UniProt P54760), what residual activity belongs to `COc1ccc(COc2ccc(Cc3cnc(N)nc3N)cc2OC)cc1` ?
Out: 90.5%

In: Record lookup: for EPHB4 (human) (UniProt P54760), what residual activity belongs to `O=C1NC(=O)C(c2cn(CCCn3ccnc3)c3ccccc23)=C1Nc1ccccc1` ?
Out: 87.9%

In: Record lookup: for EPHB4 (human) (UniProt P54760), what residual activity belongs to `CCC(=O)Nc1ccc2ncnc(Nc3cccc(Br)c3)c2c1` ?
Out: 93.4%

----------
target: SGK2 (human) (UniProt Q9HBY8); assay: radiometric filter-binding kinase assay, Kinase HotSpot; details: compound 0.5 µM; ATP 10 µM
Sequence (Q9HBY8 whole entry, looked up): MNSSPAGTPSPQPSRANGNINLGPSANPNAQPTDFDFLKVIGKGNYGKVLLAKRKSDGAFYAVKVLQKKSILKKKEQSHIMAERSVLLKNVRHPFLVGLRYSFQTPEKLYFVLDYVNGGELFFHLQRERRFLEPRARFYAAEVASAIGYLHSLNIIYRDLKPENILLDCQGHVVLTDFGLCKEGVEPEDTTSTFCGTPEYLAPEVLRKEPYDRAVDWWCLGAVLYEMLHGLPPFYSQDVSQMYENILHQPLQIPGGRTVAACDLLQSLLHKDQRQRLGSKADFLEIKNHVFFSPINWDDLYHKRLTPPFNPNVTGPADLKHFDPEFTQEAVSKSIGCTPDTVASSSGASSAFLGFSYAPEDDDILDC
Task for the reader: assign each of the following compounds its reported residual activity.
Numbers only here, please. The scale is %.

In: Record lookup: for SGK2 (human) (UniProt Q9HBY8), what residual activity belongs to `Nc1cccc(-c2cc3c(Oc4cccc(O)c4)ncnc3[nH]2)c1` ?
Out: 96.2

In: Record lookup: for SGK2 (human) (UniProt Q9HBY8), what residual activity belongs to `O=C1NC(=O)C(c2cn(CCCn3ccnc3)c3ccccc23)=C1Nc1ccccc1` ?
Out: 82.4

In: Record lookup: for SGK2 (human) (UniProt Q9HBY8), what residual activity belongs to `Cc1ccc(Nc2nccc(N(C)c3ccc4c(C)n(C)nc4c3)n2)cc1S(N)(=O)=O` ?
Out: 160

In: Record lookup: for SGK2 (human) (UniProt Q9HBY8), what residual activity belongs to `Cc1[nH]c(/C=C2\C(=O)Nc3ccc(S(=O)(=O)N(C)c4cccc(Cl)c4)cc32)c(C)c1C(=O)N1CCN(C)CC1` ?
Out: 103

In: Record lookup: for SGK2 (human) (UniProt Q9HBY8), what residual activity belongs to `N#CC(C#N)=C(N)/C(C#N)=C/c1ccc(O)cc1` ?
Out: 110

In: Record lookup: for SGK2 (human) (UniProt Q9HBY8), what residual activity belongs to `CC[n+]1c(/C=C/N(C)c2ccccc2)n(-c2ccccc2)c2ccc(-c3nc4ccccc4s3)cc21` ?
Out: 123

In: Record lookup: for SGK2 (human) (UniProt Q9HBY8), what residual activity belongs to `O=S(=O)(c1cccc2cnccc12)N1CCCNCC1` ?
Out: 91.9

In: Record lookup: for SGK2 (human) (UniProt Q9HBY8), what residual activity belongs to `CCCC(=O)Oc1ccc2[nH]c(C(=O)c3cc4ccccc4[nH]3)cc2c1` ?
Out: 99.4

In: Record lookup: for SGK2 (human) (UniProt Q9HBY8), what residual activity belongs to `O=C(Nc1cccc(Nc2nccc(Nc3cccc(C(F)(F)F)c3)n2)c1)C1CC1` ?
Out: 118

In: Record lookup: for SGK2 (human) (UniProt Q9HBY8), what residual activity belongs to `COc1ccc(COc2ccc(Cc3cnc(N)nc3N)cc2OC)cc1` ?
Out: 97.5

In: Record lookup: for SGK2 (human) (UniProt Q9HBY8), what residual activity belongs to `CC#CC(=O)Nc1cc2c(Nc3ccc(F)c(Cl)c3)ncnc2cn1` ?
Out: 98.3

In: Record lookup: for SGK2 (human) (UniProt Q9HBY8), what residual activity belongs to `CNC(=O)c1cc(Oc2ccc(NC(=O)Nc3ccc(Cl)c(C(F)(F)F)c3)cc2)ccn1` ?
Out: 103
